- MEASUREMENT_TARGET: T1, human amylin-3(a) receptor (human, UniProt P30988 25-474; O60896 24-148)
- T1 sequence (looked up) 1: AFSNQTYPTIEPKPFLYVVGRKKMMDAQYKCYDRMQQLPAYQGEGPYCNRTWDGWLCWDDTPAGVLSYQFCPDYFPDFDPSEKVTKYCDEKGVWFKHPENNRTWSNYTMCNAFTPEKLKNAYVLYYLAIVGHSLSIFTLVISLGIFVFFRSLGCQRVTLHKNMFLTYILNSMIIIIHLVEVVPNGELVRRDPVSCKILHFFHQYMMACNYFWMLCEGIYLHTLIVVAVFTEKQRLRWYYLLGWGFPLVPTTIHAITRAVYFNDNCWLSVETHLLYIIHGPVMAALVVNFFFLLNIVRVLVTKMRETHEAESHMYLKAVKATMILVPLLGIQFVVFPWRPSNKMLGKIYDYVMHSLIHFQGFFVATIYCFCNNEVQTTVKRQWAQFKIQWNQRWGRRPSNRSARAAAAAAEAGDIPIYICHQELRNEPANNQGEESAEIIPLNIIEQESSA
- T1 sequence (looked up) 2: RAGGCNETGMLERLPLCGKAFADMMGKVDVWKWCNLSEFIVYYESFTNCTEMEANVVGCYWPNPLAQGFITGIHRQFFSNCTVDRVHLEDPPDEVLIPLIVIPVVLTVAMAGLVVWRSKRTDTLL
- PROCEDURE_TEXT: cell-based or functional assay
Numbered stars: 1 amine (or outer) side, 2 acyl side, 3 side chain; on linkers, the order of the positions; unused ones are H or OH. Square brackets hold non-standard residues; d marks the D form. Side chains are listed from the residue outwards. * marks the point of attachment. C18 diacid = O=C(O)CCCCCCCCCCCCCCCCC(=O)*; γGlu = O=C(O)[C@H](CCC(=O)[*:2])N[*:1]; Chem. 28 = not defined here; AEEA = NCCOCCOCC(=O)O; Aib = CC(C)(N)C(=O)O
QUANTITY_KIND: hAMYR3 Potency, 1% HSA, EC50 [pM] (pM)
Give bare numbers, in pM.

Guide cases for hAMYR3 Potency, 1% HSA, EC50 [pM], answers given:
BINDER: Compound 78 (peptide) peptide: H[Aib]HGTFTSDYSILLEEQAAREFIEWLLAGGPSSGAGQAPGQAPGASHLSTAQTQRLSAK([AEEA-AEEA-γGlu-C18 diacid])LHRLATLPRTETGSGSP-NH2
QUANTITY_KIND: hAMYR3 Potency, 1% HSA, EC50 [pM]
ENDPOINT_VALUE: 17.1
--
BINDER: Compound 49 (reading uncertain) peptide: Y[Aib]EGTFTSDYSILLEEQAAREFIEWLLAGGPSSGAPPPSGGGEASHLSTAQTQRLSAELHK(Chem. 28)LATLPRTETGSGSP-NH2
QUANTITY_KIND: hAMYR3 Potency, 1% HSA, EC50 [pM]
ENDPOINT_VALUE: 106
--
BINDER: Compound 97 (peptide) peptide: Y[Aib]EGTFTSDYSILLEEQAAREFIEWLLAGGPSSGAGQAPGASHLSTAQTQRLSAELHK([AEEA-AEEA-γGlu-C18 diacid])LATLPRTETGSGSP-NH2
QUANTITY_KIND: hAMYR3 Potency, 1% HSA, EC50 [pM]
ENDPOINT_VALUE: 132

May I ask what hAMYR3 Potency, 1% HSA, EC50 [pM] has been recorded for Compound 26 (reading uncertain) peptide: Y[Aib]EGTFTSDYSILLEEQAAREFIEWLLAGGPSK(Chem. 28)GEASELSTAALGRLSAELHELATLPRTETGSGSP-NH2 ?
349
